- SYSTEM TESTED: SIRT1 (Homo sapiens)
- Sequence (Q96EB6 whole entry): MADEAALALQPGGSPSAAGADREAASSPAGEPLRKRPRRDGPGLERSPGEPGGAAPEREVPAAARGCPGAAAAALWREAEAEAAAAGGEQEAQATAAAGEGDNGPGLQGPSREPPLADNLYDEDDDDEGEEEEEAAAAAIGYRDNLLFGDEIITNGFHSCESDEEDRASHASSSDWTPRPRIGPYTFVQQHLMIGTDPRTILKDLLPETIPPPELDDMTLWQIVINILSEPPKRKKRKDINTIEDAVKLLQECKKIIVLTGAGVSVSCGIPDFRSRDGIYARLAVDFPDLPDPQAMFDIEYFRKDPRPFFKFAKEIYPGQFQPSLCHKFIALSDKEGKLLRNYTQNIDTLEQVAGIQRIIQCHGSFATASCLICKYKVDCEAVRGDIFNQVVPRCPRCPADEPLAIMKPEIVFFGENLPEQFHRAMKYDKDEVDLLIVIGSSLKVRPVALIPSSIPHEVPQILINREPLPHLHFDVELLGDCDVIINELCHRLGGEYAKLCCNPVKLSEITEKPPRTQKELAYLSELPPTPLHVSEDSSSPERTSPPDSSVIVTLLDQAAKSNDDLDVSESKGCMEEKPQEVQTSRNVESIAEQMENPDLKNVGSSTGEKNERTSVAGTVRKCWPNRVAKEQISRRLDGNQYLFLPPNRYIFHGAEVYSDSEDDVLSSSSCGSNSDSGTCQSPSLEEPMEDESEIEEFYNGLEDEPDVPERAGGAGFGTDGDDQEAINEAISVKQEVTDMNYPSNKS
- PROCEDURE SUMMARY: SIRT1 mass spectrometry assay (screening for activation); note: test concentration or dose not given here
- Assay type: biochemical
- CONDITION PARAMETERS: activation of SIRT1, mass spectrometry
READOUT KIND: FOLD ACTIVATION MS

Example molecules with recorded FOLD ACTIVATION MS:
[
  {
    "MOLECULE": "COc1ccc(C(=O)Nc2cc(CN3CCNCC3)cc(-c3nc4ncccc4o3)c2)cc1OC [compound 159]",
    "READOUT KIND": "FOLD ACTIVATION MS",
    "REPORTED": "B (Fold Activation<250%)"
  },
  {
    "MOLECULE": "COc1ccc(S(=O)(=O)Nc2cccc(-c3nc4ccncc4s3)c2)cc1OC [compound 289]",
    "READOUT KIND": "FOLD ACTIVATION MS",
    "REPORTED": "B (Fold Activation<250%)"
  },
  {
    "MOLECULE": "COc1ccc(C(=O)Nc2ccccc2-c2cn3c(CN4CCOCC4)csc3n2)cc1OC [compound 209]",
    "READOUT KIND": "FOLD ACTIVATION MS",
    "REPORTED": "A (Fold activation>250%)"
  },
  {
    "MOLECULE": "COc1cc(C(=O)Nc2ccccc2-c2nc3ncccc3o2)cc(OC)c1OC [compound 106]",
    "READOUT KIND": "FOLD ACTIVATION MS",
    "REPORTED": "B (Fold Activation<250%)"
  },
  {
    "MOLECULE": "COc1cc(C(=O)Nc2ccccc2-c2cn3c(CN4CCNCC4)csc3n2)cc(OC)c1OC [compound 208]",
    "READOUT KIND": "FOLD ACTIVATION MS",
    "REPORTED": "A (Fold activation>250%)"
  },
  {
    "MOLECULE": "COc1ccc(NC(=O)c2cccc(-c3nc4ncccc4o3)c2)c(OC)c1 [compound 100]",
    "READOUT KIND": "FOLD ACTIVATION MS",
    "REPORTED": "B (Fold Activation<250%)"
  },
  {
    "MOLECULE": "COc1ccc(C(=O)Nc2cccc(-c3nc4ncccc4[nH]3)c2)c(OC)c1 [compound 184]",
    "READOUT KIND": "FOLD ACTIVATION MS",
    "REPORTED": "B (Fold Activation<250%)"
  },
  {
    "MOLECULE": "COc1ccc(C(=O)Nc2cccc(-c3nc4cccnc4[nH]3)c2)c(OC)c1OC [compound 181]",
    "READOUT KIND": "FOLD ACTIVATION MS",
    "REPORTED": "A (Fold activation>250%)"
  }
]

Task: // query FOLD ACTIVATION MS value for entry CN(C(=O)Nc1ccccc1-c1nc2ccccc2[nH]1)c1ccccc1 [compound 169]
Result: B (Fold Activation<250%)

Task: So what does the record say about FOLD ACTIVATION MS for COc1cc(C(=O)Nc2ccccc2-c2cn3cc(CN4CCNCC4)sc3n2)cc(OC)c1OC [compound 271] ?
Result: A (Fold activation>250%)

----------
- SYSTEM TESTED: SIRT1 (Homo sapiens)
- PROCEDURE SUMMARY: SIRT1 mass spectrometry assay (screening for activation); note: test concentration or dose not given here
- Format: biochemical
- CONDITION PARAMETERS: activation of SIRT1, mass spectrometry
READOUT KIND: FOLD ACTIVATION MS

Sample answers from the record:
[
  {
    "MOLECULAR STRING": "CC(=O)Nc1ccc(S(=O)(=O)Nc2cccc(-c3nc4ccncc4s3)c2)cc1",
    "SYSTEM TESTED": "SIRT1 (Homo sapiens)",
    "FOLD ACTIVATION MS": "B (Fold Activation<250%)"
  },
  {
    "MOLECULAR STRING": "COc1ccc(C(=O)Nc2cccc(-c3csc(C)n3)c2)cc1OC",
    "SYSTEM TESTED": "SIRT1 (Homo sapiens)",
    "FOLD ACTIVATION MS": "B (Fold Activation<250%)"
  },
  {
    "MOLECULAR STRING": "COc1ccc(C(=O)Nc2cccc(-c3nc4ncccc4o3)n2)c(OC)c1",
    "SYSTEM TESTED": "SIRT1 (Homo sapiens)",
    "FOLD ACTIVATION MS": "B (Fold Activation<250%)"
  },
  {
    "MOLECULAR STRING": "COc1cc(C(=O)Nc2ccc(-c3nc4ccccc4[nH]3)cc2)cc(OC)c1OC",
    "SYSTEM TESTED": "SIRT1 (Homo sapiens)",
    "FOLD ACTIVATION MS": "B (Fold Activation<250%)"
  }
]

Task: Consider the compound shown here: `COc1ccc(C(=O)Nc2ccc(-c3cc4cccnc4o3)cc2)c(OC)c1` What is its recorded FOLD ACTIVATION MS?
Result: B (Fold Activation<250%)

Task: What value of FOLD ACTIVATION MS has been recorded for this entry: `Cc1nc(-c2cccc(Nc3nc4ccccc4o3)c2)cs1`
Result: B (Fold Activation<250%)

Task: Name the reported FOLD ACTIVATION MS value associated with the compound `CN(C)Cc1ccc2oc(-c3cccc(NC(=O)c4cccc(N(C)C)c4)c3)nc2n1`
Result: A (Fold activation>250%)

Task: Find the recorded FOLD ACTIVATION MS belonging to `c1cc(Nc2nc3ccccc3o2)nc(-c2nc3ncccc3o2)c1` and report it.
Result: B (Fold Activation<250%)

Task: Which FOLD ACTIVATION MS value is on record for `COc1ccc(C(=O)Nc2cc(CN(C)C)cc(-c3nc4ncccc4o3)c2)c(OC)c1` ?
Result: B (Fold Activation<250%)

Task: // returns reported FOLD ACTIVATION MS for input `COc1ccc(C(=O)Nc2cccc(-c3cc4cccnc4o3)c2)c(OC)c1`
Result: B (Fold Activation<250%)

Task: Param item = `COc1ccc(C(=O)Nc2ccccc2-c2cn3ccsc3n2)cc1OC` ; retrieve measured FOLD ACTIVATION MS.
Result: B (Fold Activation<250%)

Task: I have this compound here, `COc1ccc(C(=O)Nc2cccc(-c3nc4ccccc4[nH]3)n2)cc1OC` , and I need its recorded FOLD ACTIVATION MS.
Result: A (Fold activation>250%)

Task: Any idea what FOLD ACTIVATION MS was measured for `COc1ccc(C(=O)Nc2cc(C(=O)NCCN(C)C)cc(-c3nc4ncccc4o3)c2)cc1OC` ?
Result: B (Fold Activation<250%)

Task: Item `COc1cc(C(=O)Nc2cccc(-c3nc4cccnc4s3)c2)cc(OC)c1OC` has what recorded FOLD ACTIVATION MS?
Result: A (Fold activation>250%)

----------
- SYSTEM TESTED: SIRT1 (Homo sapiens)
- PROCEDURE SUMMARY: SIRT1 mass spectrometry assay (screening for activation); note: test concentration or dose not given here
- Type: biochemical
- CONDITION PARAMETERS: activation of SIRT1, mass spectrometry
READOUT KIND: FOLD ACTIVATION MS

The cases that follow already have their FOLD ACTIVATION MS on record.
[
  {
    "MOLECULE": "COc1ccc(C(=O)Nc2cc(CN3CCNCC3)cc(-c3nc4ncccc4o3)c2)c(OC)c1 [compound 161]",
    "REPORTED": "A (Fold activation>250%)"
  },
  {
    "MOLECULE": "COc1ccc(C(=O)Nc2ccccc2-c2cc3ccccc3[nH]2)cc1OC [compound 254]",
    "REPORTED": "B (Fold Activation<250%)"
  },
  {
    "MOLECULE": "COc1ccc(C(=O)Nc2ccccc2-c2cn3c(CN(C)C)csc3n2)cc1OC [compound 205]",
    "REPORTED": "A (Fold activation>250%)"
  },
  {
    "MOLECULE": "COc1cc(C(=O)Nc2cccc(-c3nc4ccccc4[nH]3)n2)cc(OC)c1OC [compound 259]",
    "REPORTED": "A (Fold activation>250%)"
  },
  {
    "MOLECULE": "COc1ccc(C(=O)Nc2ccccc2-c2nc3ncccc3o2)cc1OC [compound 96]",
    "REPORTED": "B (Fold Activation<250%)"
  },
  {
    "MOLECULE": "c1cc(Nc2nc3ccccc3o2)cc(-c2nc3ncccc3o2)c1 [compound 93]",
    "REPORTED": "B (Fold Activation<250%)"
  },
  {
    "MOLECULE": "O=C(Nc1cccc(-c2nc3ccncc3s2)c1)c1cnn(-c2ccccc2)c1C(F)(F)F [compound 238]",
    "REPORTED": "B (Fold Activation<250%)"
  }
]

// next item, FOLD ACTIVATION MS requested
Task: Find the recorded FOLD ACTIVATION MS belonging to COc1cc(C(=O)Nc2ccccc2-c2cn3ccsc3n2)cc(OC)c1OC [compound 204] and report it.
Result: A (Fold activation>250%)
